# assay_system: [3H] KA binding site (kainate receptor)
# method_summary: Inhibition of [3H] KA binding to cortical membranes from rat brain
# reported_conditions: inhibition of [3H] ligand binding
Lab note - cut at 30 µM for IC50 (μM) [3H] KA: yes if strictly below, no if not.

Below, 8 molecules whose answers are already recorded.
{"molecule": "CN1CCc2c(ccc3[nH]c(=O)c(=O)[nH]c23)C1", "class_label": "no"}
{"molecule": "C=C(C)[C@H]1CN[C@H](C(=O)O)[C@H]1CC(=O)O [Kainic acid, reference compound]", "class_label": "yes"}
{"molecule": "NS(=O)(=O)c1cccc2c1c([N+](=O)[O-])cc1nc(O)c(O)nc12 [NBQX, reference compound]", "class_label": "yes"}
{"molecule": "O=c1[nH]c2ccc3c(c2[nH]c1=O)CCCN3", "class_label": "no"}
{"molecule": "CCCN1CCc2c(ccc3[nH]c(=O)c(=O)[nH]c23)C1", "class_label": "no"}
{"molecule": "CCN1CCc2c(ccc3[nH]c(=O)c(=O)[nH]c23)C1", "class_label": "no"}
{"molecule": "CN1CCc2c(c(Br)cc3[nH]c(=O)c(=O)[nH]c23)C1", "class_label": "no"}
{"molecule": "CN1Cc2ccc3[nH]c(=O)c(=O)[nH]c3c2C1", "class_label": "no"}

Challenge: # check: IC50 (μM) [3H] KA < 30 µM for CN1Cc2c(Cl)cc3[nH]c(=O)c(=O)[nH]c3c2C1
Response given: yes

Challenge: # check: IC50 (μM) [3H] KA < 30 µM for CCN1CCc2c(c(Br)cc3[nH]c(=O)c(=O)[nH]c23)C1
Response given: yes

Challenge: # check: IC50 (μM) [3H] KA < 30 µM for NCC(=O)O [Glycine, reference compound]
Response given: no
